system: PANC-03-27 (Pancreatic Carcinoma); assay: combination Emax (second highest fraction inhibited in the dose matrix, 72 h); higher = more inhibition; extreme values may be limits of the assay

{"molecule": "O=C(c1cc(Cc2n[nH]c(=O)c3ccccc23)ccc1F)N1CCN(C(=O)C2CC2)CC1 [Olaparib] + CC1(C)CCC(CN2CCN(c3ccc(C(=O)NS(=O)(=O)c4ccc(NCC5CCOCC5)c([N+](=O)[O-])c4)c(Oc4cnc5[nH]ccc5c4)c3)CC2)=C(c2ccc(Cl)cc2)C1 [Venetoclax] (first compound max 10 µM, 7x7, partner max 1 µM)", "combination Emax": 0.12}
{"molecule": "CS(=O)(=O)CCNCc1ccc(-c2ccc3ncnc(Nc4ccc(OCc5cccc(F)c5)c(Cl)c4)c3c2)o1 [Lapatinib] + C[C@@H](Oc1cc(-c2cnn(C3CCNCC3)c2)cnc1N)c1c(Cl)ccc(F)c1Cl [Crizotinib] (first compound max 10 µM, 7x7, partner max 10 µM)", "combination Emax": 0.835}
{"molecule": "COc1cccc(OCCCN)c1-c1cc(Nc2cnc(C#N)cn2)n[nH]1 [Prexasertib] + C=CCn1c(=O)c2cnc(Nc3ccc(N4CCN(C)CC4)cc3)nc2n1-c1cccc(C(C)(C)O)n1 [AZD1775] (first compound max 1 µM, partner max 1 µM)", "combination Emax": 0.925}
{"molecule": "COc1cccc(OCCCN)c1-c1cc(Nc2cnc(C#N)cn2)n[nH]1 [Prexasertib] + CCc1c2c(nc3ccc(O)cc13)-c1cc3c(c(=O)n1C2)COC(=O)[C@]3(O)CC [SN-38] (first compound max 1 µM, 7x7, partner max 0.3 µM)", "combination Emax": 0.954}

The values you see were collected from the supplement of paper PMC11061612.
